# system: hEP3A/Gqi5 (Homo sapiens)
# Sequence (P43115 whole entry): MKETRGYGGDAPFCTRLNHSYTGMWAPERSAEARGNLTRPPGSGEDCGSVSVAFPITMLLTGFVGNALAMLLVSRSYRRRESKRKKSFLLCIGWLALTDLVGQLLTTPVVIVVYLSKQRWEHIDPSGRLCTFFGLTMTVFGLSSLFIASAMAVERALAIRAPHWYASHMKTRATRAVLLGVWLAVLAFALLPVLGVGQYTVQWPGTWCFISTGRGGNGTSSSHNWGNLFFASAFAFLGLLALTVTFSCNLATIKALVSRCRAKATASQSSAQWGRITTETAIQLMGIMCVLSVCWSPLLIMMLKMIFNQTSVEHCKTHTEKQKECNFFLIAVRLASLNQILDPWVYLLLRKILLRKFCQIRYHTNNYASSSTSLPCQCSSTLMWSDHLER
# protocol_notes: FLIPR calcium signal study, hEP3A/Gqi5
# experimental_context: HEK-293(EBNA) cells expressing recombinant human receptor, read-out: HEP3A functional data
measurement_label: pEC50
Scale: negative log10 of molar concentration, which is what pEC50 denotes.

Data request: Enter measured pEC50, system hEP3A/Gqi5 (Homo sapiens), for the compound shown: C=CC1CC(O)[C@H](C/C=C\CCCC(N)=O)[C@H]1/C=C/[C@@H](O)CCc1cc(Br)c(C)s1 (some centres unmarked) [Compound 13H]
Data returned: 5.15

---

# system: hFP (Homo sapiens, UniProt P43088)
# Sequence (P43088 whole entry): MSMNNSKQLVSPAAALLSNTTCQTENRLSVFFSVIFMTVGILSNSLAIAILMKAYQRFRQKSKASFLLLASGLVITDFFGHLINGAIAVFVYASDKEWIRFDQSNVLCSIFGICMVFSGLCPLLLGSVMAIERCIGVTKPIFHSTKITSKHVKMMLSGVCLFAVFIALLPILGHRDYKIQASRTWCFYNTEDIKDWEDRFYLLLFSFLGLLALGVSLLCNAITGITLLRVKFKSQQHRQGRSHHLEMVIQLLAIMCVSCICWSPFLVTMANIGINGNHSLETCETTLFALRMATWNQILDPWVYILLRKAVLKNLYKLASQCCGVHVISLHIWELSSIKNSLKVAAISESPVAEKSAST
# protocol_notes: FLIPR calcium signal study, hFP
# experimental_context: HEK-293(EBNA) cells expressing recombinant human receptor, read-out: HFP functional data
measurement_label: EC50

| molecule | EC50 |
| --- | --- |
| C=CC1CC(O)[C@H](C/C=C\CCCC(=O)NCCO)[C@H]1/C=C/[C@@H](O)CCc1cc(Br)c(C)s1 (stereo partly drawn) [Compound 12H] | > 10 µM |
| Cc1sc(CC[C@H](O)/C=C/[C@H]2C(C)CC(O)[C@@H]2C/C=C\CCCC(N)=O)cc1Br (stereo partly drawn) [Compound 17H] | ≥ 10 µM |

Data request: Using the record for CCNC(=O)CCC/C=C\C[C@H]1C(O)CC(C)[C@@H]1/C=C/[C@@H](O)CCc1cc(Br)c(C)s1 (stereo partly drawn) [Compound 15H] , state its measured EC50.
Data returned: > 10 µM

Data request: Using the record for C=CC1CC(O)[C@H](C/C=C\CCCC(=O)NCC)[C@H]1/C=C/[C@@H](O)CCc1cc(Br)c(C)s1 (stereo partly drawn) [Compound 14H] , state its measured EC50.
Data returned: > 10 µM

Data request: Using the record for C=CC1CC(O)[C@H](C/C=C\CCCC(=O)NCCO)[C@H]1/C=C/[C@@H](O)CCc1cc(Br)c(C)s1 (stereo partly drawn) [Compound 12L] , state its measured EC50.
Data returned: > 10 µM

Data request: Using the record for Cc1sc(CC[C@H](O)/C=C/[C@H]2C(C)CC(O)[C@@H]2C/C=C\CCCC(=O)NCCO)cc1Br (stereo partly drawn) [Compound 16H] , state its measured EC50.
Data returned: ≥ 10 µM
